assay: Toxicity liver stage against HepG2, at 10uM; type: cell-based; parameters: test concentration 10 uM, cell line HepG2-A16-CD81EGFP; conditions: human, HepG2-A16-CD81EGFP cells; read-out: INHIBITION
MEASURED_PROPERTY: cytotoxicity at 10 µM
Number plus unit, in that order.

[[record]]
compound = "CC(C)(C)C(C#N)NC(=O)c1ccc(Oc2cccnc2)cc1 (centres undefined)"
result = "5.21%"

[[record]]
compound = "O=C(O)c1nnn(-c2cccc(C(F)(F)F)c2)c1C1CC1"
result = "-2.02%"

[[record]]
compound = "O=C(CCC(=O)Nc1nnc(C2CCCCC2)s1)NCC1CCCO1 (centres undefined)"
result = "-7.7%"

[[record]]
compound = "CCc1nc(N)nc(NCCC(=O)N2CCCC2)c1C"
result = "-42.5%"

[[record]]
compound = "O=C(NC1CC1)C1CCCN1c1ncnc2ccsc12 (centres undefined)"
result = "-5.2%"

[[record]]
compound = "CCN(C(=O)CN1CCn2c(nnc2C2CC2)C1)C1=CCCCC1"
result = "10%"

[[record]]
compound = "N#Cc1ccc(CS(=O)(=O)NC(=O)COc2ccc3c(c2)CCC3)cc1"
result = "1.13%"

[[record]]
compound = "CCN(CCNC(=O)c1ccccc1Br)C1CC1"
result = "3.32%"

[[record]]
compound = "O=C1CN(C(=O)c2nnn(-c3ccc(C(F)(F)F)cc3)n2)CCN1"
result = "-2.77%"

[[record]]
compound = "COC(=O)N1CCCN(C(=O)c2cccc3cccnc23)CC1"
result = "8.33%"


Required: cytotoxicity at 10 µM, one value per compound below.
1. COc1cccc(N2CCN(C(=O)C(O)c3ccccc3Cl)CC2=O)c1 (centres undefined)
2. N#Cc1ccc(CN2CCCCC2Cn2cncn2)cc1 (centres undefined)
3. CC1CN(C(=O)Nc2cc(C(F)(F)F)c[nH]c2=O)CCO1 (centres undefined)

1. 3.25%
2. -1.05%
3. 3.44%

###

test: Toxicity liver stage against HepG2, at 10uM; type: cell-based; parameters: test concentration 10 uM, cell line HepG2-A16-CD81EGFP; details: human, HepG2-A16-CD81EGFP cells; read-out: INHIBITION
MEASURED_PROPERTY: cytotoxicity at 10 µM (%)
Answers are plain numbers, in %.

Take a look at these entries with their results.
[[record]]
compound = "CC(C)c1nc(CN2CCOC(CNc3cccnn3)C2)cs1 (stereo not given)"
unit_info = "%"
numeric_value = -2.93

[[record]]
compound = "Cc1ccc(CSc2ncc(Br)c(C(=O)O)n2)cc1"
unit_info = "%"
numeric_value = -2.3

[[record]]
compound = "CN(Cc1cnn(C)c1)C(=O)c1ccc(Cl)c(N2CCNC2=O)c1"
unit_info = "%"
numeric_value = -10.8

[[record]]
compound = "Cc1nnc2n1CCN(C(=O)c1cc(Br)c(Cl)[nH]1)C2"
unit_info = "%"
numeric_value = -12.7

[[record]]
compound = "CNc1cncc(C2CCCN2Cc2c[nH]cn2)n1 (stereo not given)"
unit_info = "%"
numeric_value = 0.192


Required: cytotoxicity at 10 µM, one value per compound below.
1. Cc1cnc(NC(=O)CSC2CCc3ccccc3NC2=O)s1 (stereo not given)
2. Cc1cc(C)nc(N2CCC(c3ccnc(N(C)C)n3)CC2)n1
3. CCc1nc2c(NCC3COc4cc(OC)ccc4C3)ncnc2o1 (stereo not given)

1: -2.34; 2: 21.1; 3: 40.9

Required: cytotoxicity at 10 µM, one value per compound below.
1. Cc1nn(C)c(N(C)C)c1CNCc1cccc(CN(C)C)c1
2. COCCSc1ccc(-n2ccnc2)nn1
3. CNC(=O)CNCC1(O)CCCN(Cc2ccc(F)c(F)c2)C1=O (stereo not given)
4. O=C1NC2(CCCN(C(=O)CCn3cccn3)C2)Oc2ccccc21 (stereo not given)

-3.01
6.11
-9.88
-6.19

Required: cytotoxicity at 10 µM, one value per compound below.
1. COc1cccc(CC2CN(C(=O)c3ccnn3C)CCO2)c1 (stereo not given)
2. Cc1nn(C)c(N(C)C)c1CNCc1cccc(Br)c1
3. Cc1nc(C2CCN(S(=O)(=O)c3ccc(Cl)cc3)CC2)n[nH]1
4. CNS(=O)(=O)c1c(C)sc2ccccc12
5. COCCN(C)CCN1CC2(CCN(C3CCCNC3)CC2)OC1=O (stereo not given)
6. Cc1cccc(NS(=O)(=O)c2cnn(C)c2)c1C#N
7. COCCC1(CO)CCCN(C(=O)CCC(F)(F)F)C1 (stereo not given)
8. CN(Cc1ccc2nsnc2c1)C(=O)Cn1ncc(N(C)C)cc1=O

0.769
-7.98
10.6
4.18
2.28
-0.655
-2.86
3.67
